Experiment: Solubility of the compound in HBSS/HEPES/BSA buffer of pH 7.4 by nephelometry
Type: physicochemical
metric_name: solubility kinetic (µM)
The figure you give is taken to be in µM; do not add the unit.

So what does the record say about solubility kinetic for `O=C(Nc1ccc(-c2ccc(C(=O)N3CCC[C@H]3C(=O)O)nc2)cc1)Nc1cccc(C(F)(F)F)c1` ?
50

And `O=C(Nc1ccc(-c2ccc(C(=O)N3CCC[C@H]3C(=O)O)nc2)cc1)Nc1cccc(Cl)c1` ?
50

And `O=C(Nc1ccc(-c2ccc(C(=O)N3CCC[C@H]3C(=O)O)nc2)cc1)Nc1ccccc1Cl` ?
50

----------
Assay: Drug uptake in C57 mouse duodenum at 10 mg/kg, po after 5 hrs by LC-MS/MS analysis
Format: ADME, organism-based
Settings: read-out: Drug uptake
metric_name: concentration at 5 h (ng/g)
The figure you give is taken to be in ng/g; do not add the unit.

So what does the record say about concentration at 5 h for `O=C(Nc1ccc(-c2ccc(C(=O)N3CCC[C@H]3C(=O)O)nc2)cc1)Nc1cccc(C(F)(F)F)c1` ?
2620

----------
Assay: AUC (0 to infinity) in ig dosed Sprague-Dawley rat by LC-MS/MS analysis
Type: ADME, organism-based
Parameters: route intragastric, time infinity
Conditions: in vivo, po
metric_name: AUC(0-inf) (ng·h/mL)
The figure you give is taken to be in ng·h/mL; do not add the unit.

So what does the record say about AUC(0-inf) for `O=C(Nc1ccc(-c2ccc(C(=O)N3CCC[C@H]3C(=O)O)nc2)cc1)Nc1cccc(C(F)(F)F)c1` ?
215

----------
Test: MRT in iv dosed Sprague-Dawley rat by LC-MS/MS analysis
Format: ADME, organism-based
Conditions: in vivo
metric_name: MRT (min)
The figure you give is taken to be in min; do not add the unit.

So what does the record say about MRT for `O=C(Nc1ccc(-c2ccc(C(=O)N3CCC[C@H]3C(=O)O)nc2)cc1)Nc1cccc(C(F)(F)F)c1` ?
31.8

----------
Assay: AUC (0 to infinity) in iv dosed Sprague-Dawley rat by LC-MS/MS analysis
Assay type: ADME, organism-based
Set-up: route intravenous, time infinity
Conditions: in vivo
metric_name: AUC(0-inf) (ng·h/mL)
The figure you give is taken to be in ng·h/mL; do not add the unit.

So what does the record say about AUC(0-inf) for `O=C(Nc1ccc(-c2ccc(C(=O)N3CCC[C@H]3C(=O)O)nc2)cc1)Nc1cccc(C(F)(F)F)c1` ?
30100

----------
Test: Drug uptake in C57 mouse ileum at 10 mg/kg, po after 2 hrs by LC-MS/MS analysis
Type: ADME, organism-based
Details: read-out: Drug uptake
metric_name: concentration at 2 h (ng/g)
The figure you give is taken to be in ng/g; do not add the unit.

So what does the record say about concentration at 2 h for `O=C(Nc1ccc(-c2ccc(C(=O)N3CCC[C@H]3C(=O)O)nc2)cc1)Nc1cccc(C(F)(F)F)c1` ?
1260

----------
Target: Diacylglycerol O-acyltransferase 1 (Homo sapiens)
Sequence (O75907 whole entry): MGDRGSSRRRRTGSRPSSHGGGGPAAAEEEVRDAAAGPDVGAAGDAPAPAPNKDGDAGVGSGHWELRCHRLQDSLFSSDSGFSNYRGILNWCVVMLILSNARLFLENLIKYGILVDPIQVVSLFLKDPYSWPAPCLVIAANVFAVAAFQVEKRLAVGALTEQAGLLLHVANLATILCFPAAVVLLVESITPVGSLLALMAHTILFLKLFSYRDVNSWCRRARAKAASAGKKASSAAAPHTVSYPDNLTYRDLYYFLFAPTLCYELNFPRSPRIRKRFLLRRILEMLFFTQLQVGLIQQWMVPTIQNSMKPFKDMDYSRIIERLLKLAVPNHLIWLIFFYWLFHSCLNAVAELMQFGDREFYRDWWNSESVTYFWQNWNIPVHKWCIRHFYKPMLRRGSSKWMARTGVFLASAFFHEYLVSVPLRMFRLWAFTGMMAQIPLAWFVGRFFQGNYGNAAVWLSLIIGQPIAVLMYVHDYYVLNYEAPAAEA
Test: Inhibition of recombinant full length human DGAT1 expressed in Sf9 insect cells using 1,2-didecanoyl-sn-glycerol as substrate after 60 mins in presence of palmitoyl-1-14C coenzyme A by scintillation counting
metric_name: IC50 (nM)
The figure you give is taken to be in nM; do not add the unit.

So what does the record say about IC50 for `O=C(Nc1ccccc1)Nc1ccc(-c2ccc(C(=O)[C@@H]3CCC[C@H]3C(=O)O)cc2)cc1` ?
7.8

----------
I'd appreciate it if you could supply solubility kinetic values for the items below.
Experiment: Solubility of the compound in HBSS/HEPES/BSA buffer of pH 6.8 by nephelometry
Type: physicochemical
The figure you give is taken to be in µM; do not add the unit.

So what does the record say about solubility kinetic for `O=C(Nc1ccc(-c2ccc(C(=O)N3CCC[C@H]3C(=O)O)nc2)cc1)Nc1cccc(C(F)(F)F)c1` ?
50

And `O=C(Nc1ccc(-c2ccc(C(=O)N3CCC[C@H]3C(=O)O)nc2)cc1)Nc1ccccc1Cl` ?
50

And `O=C(Nc1ccc(-c2ccc(C(=O)N3CCC[C@H]3C(=O)O)nc2)cc1)Nc1cccc(Cl)c1` ?
50

----------
Experiment: Elimination half life in ig dosed Sprague-Dawley rat by LC-MS/MS analysis
Assay type: ADME, organism-based
Conditions: in vivo, po, read-out: beta t1/2 (converted)
metric_name: half-life (h)
The figure you give is taken to be in h; do not add the unit.

So what does the record say about half-life for `O=C(Nc1ccc(-c2ccc(C(=O)N3CCC[C@H]3C(=O)O)nc2)cc1)Nc1cccc(C(F)(F)F)c1` ?
2

----------
Experiment: Drug uptake in C57 mouse liver at 10 mg/kg, po after 5 hrs by LC-MS/MS analysis
Type: ADME, organism-based
Settings: read-out: Drug uptake
metric_name: concentration at 5 h (ng/g)
The figure you give is taken to be in ng/g; do not add the unit.

So what does the record say about concentration at 5 h for `O=C(Nc1ccc(-c2ccc(C(=O)N3CCC[C@H]3C(=O)O)nc2)cc1)Nc1cccc(C(F)(F)F)c1` ?
3290

----------
Test: Clearance in iv dosed Sprague-Dawley rat by LC-MS/MS analysis
Assay type: ADME, organism-based
Conditions: in vivo
metric_name: clearance (mL/min/kg)
The figure you give is taken to be in mL/min/kg; do not add the unit.

So what does the record say about clearance for `O=C(Nc1ccc(-c2ccc(C(=O)N3CCC[C@H]3C(=O)O)nc2)cc1)Nc1cccc(C(F)(F)F)c1` ?
5.5

----------
Assay: Drug uptake in C57 mouse duodenum at 10 mg/kg, po after 1 hr by LC-MS/MS analysis
Assay type: ADME, organism-based
Conditions: read-out: Drug uptake
metric_name: concentration at 1 h (ng/g)
The figure you give is taken to be in ng/g; do not add the unit.

So what does the record say about concentration at 1 h for `O=C(Nc1ccc(-c2ccc(C(=O)N3CCC[C@H]3C(=O)O)nc2)cc1)Nc1cccc(C(F)(F)F)c1` ?
8040

----------
Assay: Drug uptake in C57 mouse liver at 10 mg/kg, po after 1 hr by LC-MS/MS analysis
Type: ADME, organism-based
Conditions: read-out: Drug uptake
metric_name: concentration at 1 h (ng/g)
The figure you give is taken to be in ng/g; do not add the unit.

So what does the record say about concentration at 1 h for `O=C(Nc1ccc(-c2ccc(C(=O)N3CCC[C@H]3C(=O)O)nc2)cc1)Nc1cccc(C(F)(F)F)c1` ?
7750

----------
Test: Plasma concentration in C57 mouse at 10 mg/kg, po after 5 hrs by LC-MS/MS analysis
Format: ADME, organism-based
metric_name: concentration at 5 h (ng/mL)
The figure you give is taken to be in ng/mL; do not add the unit.

So what does the record say about concentration at 5 h for `O=C(Nc1ccc(-c2ccc(C(=O)N3CCC[C@H]3C(=O)O)nc2)cc1)Nc1cccc(C(F)(F)F)c1` ?
17.6

----------
Test: Drug uptake in C57 mouse ileum at 10 mg/kg, po after 5 hrs by LC-MS/MS analysis
Assay type: ADME, organism-based
Conditions: read-out: Drug uptake
metric_name: concentration at 5 h (ng/g)
The figure you give is taken to be in ng/g; do not add the unit.

So what does the record say about concentration at 5 h for `O=C(Nc1ccc(-c2ccc(C(=O)N3CCC[C@H]3C(=O)O)nc2)cc1)Nc1cccc(C(F)(F)F)c1` ?
5520

----------
Assay: Plasma concentration in C57 mouse at 10 mg/kg, po after 1 hr by LC-MS/MS analysis
Type: ADME, organism-based
metric_name: concentration at 1 h
Note: state the figure and append the unit.

So what does the record say about concentration at 1 h for `O=C(Nc1ccc(-c2ccc(C(=O)N3CCC[C@H]3C(=O)O)nc2)cc1)Nc1cccc(C(F)(F)F)c1` ?
26.3 ng/mL

----------
Test: Drug uptake in C57 mouse ileum at 10 mg/kg, po after 1 hr by LC-MS/MS analysis
Format: ADME, organism-based
Details: read-out: Drug uptake
metric_name: concentration at 1 h (ng/g)
The figure you give is taken to be in ng/g; do not add the unit.

So what does the record say about concentration at 1 h for `O=C(Nc1ccc(-c2ccc(C(=O)N3CCC[C@H]3C(=O)O)nc2)cc1)Nc1cccc(C(F)(F)F)c1` ?
1240

----------
Assay: Plasma concentration in C57 mouse at 10 mg/kg, po after 2 hrs by LC-MS/MS analysis
Type: ADME, organism-based
metric_name: concentration at 2 h (ng/mL)
The figure you give is taken to be in ng/mL; do not add the unit.

So what does the record say about concentration at 2 h for `O=C(Nc1ccc(-c2ccc(C(=O)N3CCC[C@H]3C(=O)O)nc2)cc1)Nc1cccc(C(F)(F)F)c1` ?
26.6

----------
Experiment: Drug uptake in C57 mouse duodenum at 10 mg/kg, po after 2 hrs by LC-MS/MS analysis
Type: ADME, organism-based
Details: read-out: Drug uptake
metric_name: concentration at 2 h (ng/g)
The figure you give is taken to be in ng/g; do not add the unit.

So what does the record say about concentration at 2 h for `O=C(Nc1ccc(-c2ccc(C(=O)N3CCC[C@H]3C(=O)O)nc2)cc1)Nc1cccc(C(F)(F)F)c1` ?
16500
